Values were extracted from paper PMC11945486.

Each record here notes measured Max ΔF/F0.
- Assay System: human TAS1R2-WT/TAS1R3-M110T (Homo sapiens, UniProt Q7RTX0+Q8TE23, M110T)
- Construct: expressed in transfected cells; host or cells: HEK293T stably expressing Gα16gust44
- Sequence (Q8TE23 20-839): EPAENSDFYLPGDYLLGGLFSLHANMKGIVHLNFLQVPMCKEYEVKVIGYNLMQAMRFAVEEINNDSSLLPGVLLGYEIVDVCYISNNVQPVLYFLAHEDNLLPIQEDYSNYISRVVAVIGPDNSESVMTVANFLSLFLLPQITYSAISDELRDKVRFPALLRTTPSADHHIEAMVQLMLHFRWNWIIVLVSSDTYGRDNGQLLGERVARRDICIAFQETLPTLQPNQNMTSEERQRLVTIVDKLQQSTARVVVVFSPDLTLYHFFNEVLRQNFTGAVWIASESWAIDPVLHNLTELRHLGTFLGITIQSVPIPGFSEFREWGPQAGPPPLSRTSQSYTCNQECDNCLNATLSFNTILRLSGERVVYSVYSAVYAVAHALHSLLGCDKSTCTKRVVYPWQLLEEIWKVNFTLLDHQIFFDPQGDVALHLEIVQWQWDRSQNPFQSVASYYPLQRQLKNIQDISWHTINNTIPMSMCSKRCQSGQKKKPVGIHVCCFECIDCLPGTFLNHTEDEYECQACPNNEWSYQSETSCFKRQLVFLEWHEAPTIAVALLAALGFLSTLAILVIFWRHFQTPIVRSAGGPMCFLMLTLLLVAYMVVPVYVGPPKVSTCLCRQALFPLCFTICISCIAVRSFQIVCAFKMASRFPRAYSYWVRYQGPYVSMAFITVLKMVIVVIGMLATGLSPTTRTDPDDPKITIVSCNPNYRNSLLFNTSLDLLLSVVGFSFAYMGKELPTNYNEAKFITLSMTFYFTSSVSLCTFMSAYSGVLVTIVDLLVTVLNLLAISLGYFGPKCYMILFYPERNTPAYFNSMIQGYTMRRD
- Sequence (Q7RTX0 21-852 M110T): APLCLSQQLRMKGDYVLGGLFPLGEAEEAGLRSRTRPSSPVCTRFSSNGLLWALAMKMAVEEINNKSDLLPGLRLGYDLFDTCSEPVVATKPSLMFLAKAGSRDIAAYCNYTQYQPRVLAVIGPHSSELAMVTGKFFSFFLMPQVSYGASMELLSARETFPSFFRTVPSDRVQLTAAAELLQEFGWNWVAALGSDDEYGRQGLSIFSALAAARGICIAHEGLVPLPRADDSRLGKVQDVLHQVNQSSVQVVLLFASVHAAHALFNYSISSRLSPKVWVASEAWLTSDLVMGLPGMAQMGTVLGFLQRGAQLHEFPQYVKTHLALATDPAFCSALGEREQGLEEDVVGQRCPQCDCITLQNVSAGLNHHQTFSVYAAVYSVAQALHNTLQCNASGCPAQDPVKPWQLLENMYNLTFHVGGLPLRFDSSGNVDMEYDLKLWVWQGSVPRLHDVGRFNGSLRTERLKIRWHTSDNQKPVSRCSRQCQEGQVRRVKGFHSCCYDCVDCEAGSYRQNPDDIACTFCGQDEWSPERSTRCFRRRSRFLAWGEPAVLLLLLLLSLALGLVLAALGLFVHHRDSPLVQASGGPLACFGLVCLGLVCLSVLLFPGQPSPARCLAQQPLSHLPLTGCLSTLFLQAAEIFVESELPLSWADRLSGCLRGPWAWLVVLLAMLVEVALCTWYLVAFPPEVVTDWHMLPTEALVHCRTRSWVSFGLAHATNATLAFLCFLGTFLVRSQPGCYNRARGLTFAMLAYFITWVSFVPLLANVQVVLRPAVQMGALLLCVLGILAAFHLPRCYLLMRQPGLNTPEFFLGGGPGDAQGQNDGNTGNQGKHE
- Assay Procedure: Calcium mobilisation assay, TAS1R2-WT with TAS1R3 variant M110T
- Type: cell-based
- Measurement Setup: maximal signal amplitude
Please respond with just the number, no unit label.

Query string: Look up Max ΔF/F0 for this compound: CC1=CC(=O)NS(=O)(=O)O1 [Acesulfame K, acesulfame K]
Result string: 0.20

Query string: Look up Max ΔF/F0 for this compound: COC(=O)[C@H](Cc1ccccc1)NC(=O)[C@H](CC(=O)O)NCCC(C)(C)C [Neotame]
Result string: 0.19

Query string: Look up Max ΔF/F0 for this compound: COc1ccc(CCC(=O)c2c(O)cc(O[C@@H]3O[C@H](CO)[C@@H](O)[C@H](O)[C@H]3O[C@@H]3O[C@@H](C)[C@H](O)[C@@H](O)[C@H]3O)cc2O)cc1O [NHDC, neohesperidin dihydrochalcone]
Result string: 0.48

Query string: Look up Max ΔF/F0 for this compound: C=C1C[C@@]23CC[C@H]4[C@@](C)(CCC[C@@]4(C)C(=O)O[C@@H]4O[C@H](CO)[C@@H](O)[C@H](O[C@@H]5O[C@H](CO)[C@@H](O)[C@H](O)[C@H]5O)[C@H]4O[C@@H]4O[C@H](CO)[C@@H](O)[C@H](O)[C@H]4O)[C@@H]2CC[C@]1(O[C@@H]1O[C@H](CO)[C@@H](O)[C@H](O[C@@H]2O[C@H](CO)[C@@H](O)[C@H](O)[C@H]2O)[C@H]1O[C@@H]1O[C@H](CO)[C@@H](O)[C@H](O)[C@H]1O)C3 [Rebaudioside M, rebaudioside M]
Result string: 0.38

====

- Assay System: human TAS1R2-WT/TAS1R3-T716M (Homo sapiens, UniProt Q7RTX0+Q8TE23, T716M)
- Construct: expressed in transfected cells; host or cells: HEK293T stably expressing Gα16gust44
- Sequence (Q8TE23 20-839, stated change not applied): as the sequence (Q8TE23 20-839) above
- Sequence (Q7RTX0 21-852 T716M): as the sequence (Q7RTX0 21-852 M110T) above, with T90M, T696M counted along it
- Assay Procedure: Calcium mobilisation assay, TAS1R2-WT with TAS1R3 variant T716M
- Assay type: cell-based
- Measurement Setup: read-out: EC50
Each record here notes measured EC50.
State just the number; it will be interpreted in µM.

# Molecule, Assay System, Unit Name, EC50
data = [
    ("C=C1C[C@@]23CC[C@H]4[C@@](C)(CCC[C@@]4(C)C(=O)O[C@@H]4O[C@H](CO)[C@@H](O)[C@H](O[C@@H]5O[C@H](CO)[C@@H](O)[C@H](O)[C@H]5O)[C@H]4O[C@@H]4O[C@H](CO)[C@@H](O)[C@H](O)[C@H]4O)[C@@H]2CC[C@]1(O[C@@H]1O[C@H](CO)[C@@H](O)[C@H](O[C@@H]2O[C@H](CO)[C@@H](O)[C@H](O)[C@H]2O)[C@H]1O[C@@H]1O[C@H](CO)[C@@H](O)[C@H](O)[C@H]1O)C3 [Rebaudioside M, rebaudioside M]", "human TAS1R2-WT/TAS1R3-T716M (Homo sapiens, UniProt Q7RTX0+Q8TE23, T716M)", "µM", 30.7),
]

Query string: Look up EC50 for this molecule: `OC[C@H]1O[C@H](O[C@]2(CCl)O[C@H](CCl)[C@@H](O)[C@@H]2O)[C@H](O)[C@@H](O)[C@H]1Cl`
Result string: 161

Query string: Look up EC50 for this molecule: O=S(=O)(O)NC1CCCCC1 [Cyclamate, cyclamate]
Result string: 1860

Query string: Look up EC50 for this molecule: C[C@H](CC[C@@H](O[C@@H]1O[C@H](CO[C@@H]2O[C@H](CO)[C@@H](O)[C@H](O)[C@H]2O)[C@@H](O)[C@H](O)[C@H]1O[C@@H]1O[C@H](CO)[C@@H](O)[C@H](O)[C@H]1O)C(C)(C)O)[C@H]1CC[C@@]2(C)[C@@H]3CC=C4[C@@H](CC[C@H](O[C@@H]5O[C@H](CO[C@@H]6O[C@H](CO)[C@@H](O)[C@H](O)[C@H]6O)[C@@H](O)[C@H](O)[C@H]5O)C4(C)C)[C@]3(C)[C@H](O)C[C@]12C [Mogroside V, mogroside V]
Result string: 36.4
